Target or system: MAL^TIR (Homo sapiens, UniProt P58753)
Construct: MAL (residues 79–221); 6xHis; made in house; host or cells: E. coli BL21 (DE3)
Sequence (P58753 79-221): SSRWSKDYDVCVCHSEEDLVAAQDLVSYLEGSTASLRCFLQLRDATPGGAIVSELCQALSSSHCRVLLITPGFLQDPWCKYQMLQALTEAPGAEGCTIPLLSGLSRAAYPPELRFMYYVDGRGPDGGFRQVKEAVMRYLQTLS
Run description: T‐Surf phage library (P8 and P3) selection against MAL^TIR, four rounds, NGS read counts
Type: binding
Test conditions: P3 library, selection against MAL, rank by count before grouping
Value type: P3_MAL Rank (before)

1. RGFRSHLRQHLQAKDH :: 2410
2. HQSFWARTWAALIAPS :: 2849
3. DSHSSRFKEDAELGGQ :: 1963
4. KMQKWKDALYEAANPT :: 3683
5. HQAFWNRLWAKLKPP :: 2873

* * *

Target or system: MyD88^TIR (Homo sapiens)
Construct: MyD88 (residues 148–296); 6xHis; made in house; host or cells: E. coli BL21 (DE3)
Run description: T‐Surf phage library (P8 and P3) selection against MyD88^TIR, four rounds, NGS read counts
Type: binding
Test conditions: P3_MyD88: rank by count after grouping
Recorded measurements of Rank (after), one per entry
Value type: Rank (after)

1. GFLYHAFAREGIKIFM :: 124
2. NDLVHGWSSKANSLVG :: 136
3. DQHLDLPRGKAIKPELLG :: 475
4. SSLLEGRWALLELSKK :: 459
5. NQCRNFLTAAANLSGW :: 164
6. LSRVPSVHDFRGLMSI :: 416
7. EWIREQLRPALKERL :: 112
8. WFWDKLIYALSRNPH :: 155
9. YTALTNSGFPTFRDHD :: 171

* * *

Target or system: MyD88^TIR (Homo sapiens, UniProt Q99836)
Construct: MyD88 (residues 148–296); 6xHis; made in house; host or cells: E. coli BL21 (DE3)
Sequence (Q99836 148-296): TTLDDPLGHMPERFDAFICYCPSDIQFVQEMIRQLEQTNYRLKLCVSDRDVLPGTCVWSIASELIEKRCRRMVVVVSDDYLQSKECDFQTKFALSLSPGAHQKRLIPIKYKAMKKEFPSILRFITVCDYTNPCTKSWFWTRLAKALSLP
Run description: T‐Surf phage library (P8 and P3) selection against MyD88^TIR, four rounds, NGS read counts
Type: binding
Test conditions: P8 library, 4R selection against MyD88, rank before grouping
P8_MyD88 Rank (before) vs 3000: at or above is True, below is False.

1. LGYQCIDWEYFVDIED :: True
2. FDARTWFFQEMGIIVE :: False
3. LGYHWIDWENLVGFED :: True
4. DFLNWFYERLVSLFL :: False
5. VANILGYHCKGWENFV :: False
6. YNLAQYLHVSLMARGI :: False
7. LGYHWIVWEYLVGIKD :: True
8. WALDELWHILRALGLF :: False
9. DPRDLAWFYEVLLSRF :: False

* * *

Target or system: TIR domain of MAL (Homo sapiens, UniProt P58753)
Construct: MAL (residues 79–221); 6xHis; made in house; host or cells: E. coli BL21 (DE3)
Sequence (P58753 79-221): as the sequence (P58753 79-221) above
Run description: Fluorescence polarization (FP) assay, MAL TIR
Format: binding
Test conditions: Cy5‐labeled TDIP1 50 nM, TIR domain diluted 1:1 from 40 µM, 30 min RT, ± SD, n = 3, read-out: apparent Kd against MAL
Method: Figure 6 Molecular characterization of TDIPs. (a) Co‐immunoprecipitation of TIR domains and TDIPs. Lysates of HEK293T cells expressing FLAG‐tagged TIR domains were incubated with the indicated TDIPs. […] (b) Fluorescence polarization binding assay of the Cy5‐labeled TDIP1 against TIR domains of Myd88, TRAM, and MAL. […] (c) Human serum stability (half‐life) of the TDIPs was measured. The percentage of the remaining peptide was quantified up to 72 h. […]
pKd: −log10 of the molar value. Where no end group is shown, it is not given here.
Value type: pKd

1. RQIKIWFQNRRMKWKKWFYERLVSLILRDTKV [TDIP1] :: 5.35
